Listing of recorded IC50 (µg/mL), pseudovirus neutralization by entry.
Target: HIV-1 93IN905 Env (clade C pseudovirus) (HIV-1)
Assay: cell-based or functional assay

Check out these entries, answers already filled in.
1495_C14 (PGC14) (antibody, human IgG1, lambda, V domains shown) VH: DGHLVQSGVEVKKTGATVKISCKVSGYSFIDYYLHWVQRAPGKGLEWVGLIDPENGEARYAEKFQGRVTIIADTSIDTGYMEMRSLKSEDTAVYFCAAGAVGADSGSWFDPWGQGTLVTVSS VL: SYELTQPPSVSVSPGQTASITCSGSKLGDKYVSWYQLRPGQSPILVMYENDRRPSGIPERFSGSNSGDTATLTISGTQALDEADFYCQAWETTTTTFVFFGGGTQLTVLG ... > 50 µg/mL
1456_P20 (PG20) (antibody, human IgG1, kappa, V domains shown) VH: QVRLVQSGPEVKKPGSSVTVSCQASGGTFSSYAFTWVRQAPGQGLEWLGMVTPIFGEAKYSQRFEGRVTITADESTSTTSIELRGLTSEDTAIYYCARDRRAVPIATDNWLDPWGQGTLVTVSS VL: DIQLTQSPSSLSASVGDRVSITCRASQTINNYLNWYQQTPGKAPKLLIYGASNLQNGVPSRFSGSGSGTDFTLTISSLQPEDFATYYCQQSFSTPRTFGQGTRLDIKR ... > 50 µg/mL

Query: Quick check: IC50 (µg/mL), pseudovirus neutralization of 1443_C16 (PG16) (TCN-116) (antibody, V domains shown) VH: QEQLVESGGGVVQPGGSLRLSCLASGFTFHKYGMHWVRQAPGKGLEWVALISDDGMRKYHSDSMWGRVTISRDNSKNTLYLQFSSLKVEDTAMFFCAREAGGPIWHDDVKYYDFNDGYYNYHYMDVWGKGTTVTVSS VL: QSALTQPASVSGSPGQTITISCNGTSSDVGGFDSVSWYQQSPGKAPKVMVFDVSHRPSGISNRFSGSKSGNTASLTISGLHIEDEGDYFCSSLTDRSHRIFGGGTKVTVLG ?
Response: 0.1 µg/mL
